- System: PHA-Ly
- protocol summary: In vitro toxicity which caused 50% decrease in [14C]- leucine incorporation by the PHA-LY cells in culture.
- Assay type: functional
- condition set: Homo sapiens, read-out: ID50 (the source's name)
Classify: 1.0 when IC50 is strictly less than 80 µM; 0.0 when IC50 is not.

# item smiles, label class
records = [
    ("CN(C)c1nc(Br)nc2c1ncn2[C@@H]1C[C@@H](O)[C@H](CO)O1", 0.0),
    ("CSc1nc(N(C)C)c2ncn([C@@H]3C[C@@H](O)[C@H](CO)O3)c2n1", 0.0),
    ("Nc1nc(Br)nc2c1ncn2[C@@H]1C[C@@H](O)[C@H](CO)O1", 1.0),
    ("CNc1nc(Br)nc2c1ncn2[C@@H]1C[C@@H](O)[C@H](CO)O1", 1.0),
    ("CN(C)c1nc(N)c2ncn([C@@H]3C[C@@H](O)[C@H](CO)O3)c2n1", 0.0),
    ("CSc1nc(SC)c2ncn([C@@H]3C[C@@H](O)[C@H](CO)O3)c2n1", 0.0),
]

====

- System: Raji
- protocol summary: In vitro toxicity which caused 50% decrease in [14C]- leucine incorporation by the Raji cells in culture.
- Type: cell-based
- condition set: human, read-out: ID50 (the source's name)

# item smiles, system tested, CC50 [nM]
measured = [
    ("Nc1nc(Br)nc2c1ncn2[C@@H]1C[C@@H](O)[C@H](CO)O1", "Raji", 700),
]

====

- Tested on: B-95-8 cell line
- protocol summary: In vitro toxicity which caused 50% decrease in [14C]- leucine incorporation by the B-95-8 cells in culture.
- Assay type: functional, Callitrichidae
- condition set: Saguinus oedipus, read-out: ID50 (the source's name)
pIC50: −log10 of the molar value.
Parameter pIC50: see the listing below.

# item smiles, result qualifier, pIC50
rows = [
    ("CNc1nc(SC)nc2c1ncn2[C@@H]1C[C@@H](O)[C@H](CO)O1", "<", 3.52),
    ("CN(C)c1nc(N)c2ncn([C@@H]3C[C@@H](O)[C@H](CO)O3)c2n1", "=", 3.74),
    ("CSc1nc(SC)c2ncn([C@@H]3C[C@@H](O)[C@H](CO)O3)c2n1", "=", 3.65),
]

====

- Tested on: MOLT-4
- protocol summary: In vitro toxicity which caused 50% decrease in [14C]- leucine incorporation by the MOLT-4 cells in culture.
- Assay type: cell-based
- condition set: human, read-out: ID50 (the source's name)

# item smiles, CC50 [µM]
measured = [
    ("Nc1nc(Br)nc2c1ncn2[C@@H]1C[C@@H](O)[C@H](CO)O1", 3.2),
]
